In what follows, each item is paired with its IC50 for Lanosterol synthase (Homo sapiens).
MEASUREMENT LABEL: IC50 (nM)

(1) CN(CCCCCCOc1ccc(C(=O)c2ccc(Br)cc2)cc1)CC1CC1
(2) CN(C/C=C/COc1ccc(C(=O)c2ccc(Br)cc2)cn1)C1CC1
Prompt: # return whichever of 1 and 2 has the smaller IC50 # respond with the chosen item's label
Completion: 2
(2: 19.1 nM, 1: 31.6 nM)
